So I've got a bunch of compounds here, and I need their IC50 values.
- TEST_TARGET: β5c (Homo sapiens, UniProt P20618+P28074)
- Construct: protease activity associated with the proteasome complex in cultured cells; endogenous in cells
- EXPERIMENTAL_PROTOCOL: Cell-Based Proteasome Activity/Selectivity Assay (Ramos cells), substrate (WLA)2Rh110
- RUN_CONDITIONS: highest concentration tested 20 μM
- Description: Cell-Based Proteasome Activity/Selectivity Assay The Cell-Based Proteasome subunit activity/selectivity assay was a panel of 5 fluorogenic assays that independently measured the activity of β5c or β5i (chymotrypsin-like activity), β2c/2i (trypsin-like), and β1c or β1i (caspase-like) protease activity associated with the proteasome complex in cultured cells. […]
One number for each entry, in nM.

{"COMPOUND": "COc1ccc(C[C@H](NC(=O)[C@@H](NC(=O)C2Cc3ccccc3C2)C2CC2)C(=O)N[C@@H](Cc2ccccc2)C(=O)C(=O)NCc2ccccc2)cc1 [Example 26]", "IC50 / nM": 15}

Could I get IC50 for every one of these entries?
1. CCn1nccc1C(=O)N[C@@H](C)C(=O)N[C@@H](Cc1ccccc1)C(=O)N[C@@H](Cc1ccccc1)C(=O)C(=O)NCc1ccccc1 [Example 54]
2. C[C@H](NC(=O)OCc1ccccc1)C(=O)N[C@@H](Cc1c[nH]c2ccccc12)C(=O)N[C@@H](Cc1ccccc1)C(=O)C(=O)NCc1ccccc1 [Example 16]

**Result**
[1680, 926]

Could I get IC50 for every one of these entries?
1. COc1ccc(C[C@H](NC(=O)[C@H](C)NC(=O)c2cc3ncccc3n2C)C(=O)N[C@@H](Cc2ccccc2)C(=O)C(=O)NCc2ccccc2)cc1 [Example 45]
2. COc1ccc(C[C@H](NC(=O)[C@H](C)NC(=O)C2Cc3ccccc3C2)C(=O)NC2(C(=O)C(=O)NCc3ccccc3)Cc3ccccc3C2)cc1 [Example 59]
3. CCCC[C@H](NC(=O)[C@H](Cc1c[nH]c2ccccc12)NC(=O)[C@H](C)NC(=O)C1=C(C)c2ccccc2C1)C(=O)C(=O)NCc1ccccc1 [Example 5]

**Result**
250
1360
560

* * *

- TEST_TARGET: β5i (Homo sapiens, UniProt P20618+P28062)
- Construct: protease activity associated with the proteasome complex in cultured cells; endogenous in cells
- EXPERIMENTAL_PROTOCOL: Cell-Based Proteasome Activity/Selectivity Assay (Ramos cells), substrate (ANW)2Rh110
- RUN_CONDITIONS: highest concentration tested 20 μM, read-out: Ic50 ramos:ac-(anw)2-r110
IC50 less than 30 nM is met; IC50 greater than or equal to 30 nM is not met.

Please review the following examples before continuing.
{"CPD_SMILES": "C[C@H](NC(=O)c1ccnn1C)C(=O)N[C@@H](Cc1c[nH]c2ccccc12)C(=O)N[C@@H](Cc1ccccc1)C(=O)C(=O)NCc1ccccc1", "CLASS": "not met"}
{"CPD_SMILES": "C[C@H](NC(=O)OCc1ccccc1)C(=O)N[C@@H](Cc1c[nH]c2ccccc12)C(=O)N[C@@H](Cc1ccccc1)C(=O)C(=O)NCc1ccccn1", "CLASS": "met"}

**Query** A record lists COc1ccc(C[C@H](NC(=O)[C@H](C)NS(=O)(=O)c2ccccc2)C(=O)N[C@@H](Cc2ccccc2)C(=O)C(=O)NCc2ccccc2)cc1 . Is its IC50 below 30 nM?
**Result** met

**Query** A record lists CCCC[C@H](NC(=O)[C@H](Cc1c[nH]c2ccccc12)NC(=O)[C@H](C)NC(=O)c1cccc(Cl)c1Cl)C(=O)C(=O)NCc1ccccc1 . Is its IC50 below 30 nM?
**Result** not met

**Query** A record lists C[C@H](NC(=O)C1Cc2ccccc2C1)C(=O)N[C@@H](Cc1ccccc1)C(=O)N[C@@H](Cc1ccccc1)C(=O)C(=O)NCc1ccccc1 . Is its IC50 below 30 nM?
**Result** met

**Query** A record lists COc1ccc(C[C@H](NC(=O)[C@H](C)NC(=O)c2cn3ccccc3n2)C(=O)N[C@@H](Cc2ccccc2)C(=O)C(=O)NCc2ccccc2)cc1 . Is its IC50 below 30 nM?
**Result** not met

* * *

- TEST_TARGET: β5i (Homo sapiens, UniProt P20618+P28062)
- Construct: protease activity associated with the proteasome complex in cultured cells; endogenous in cells
- EXPERIMENTAL_PROTOCOL: Cell-Based Proteasome Activity/Selectivity Assay (Ramos cells), substrate (ANW)2Rh110
- RUN_CONDITIONS: highest concentration tested 20 μM, read-out: Ic50 ramos:ac-(anw)2-r110
- Excerpt: Cell-Based Proteasome Activity/Selectivity Assay The Cell-Based Proteasome subunit activity/selectivity assay was a panel of 5 fluorogenic assays that independently measured the activity of β5c or β5i (chymotrypsin-like activity), β2c/2i (trypsin-like), and β1c or β1i (caspase-like) protease activity associated with the proteasome complex in cultured cells. […]
PROPERTY: pIC50
Numbers only, as −log10 of the molar value.

Before answering, review these 6 worked examples.
{"COMPOUND": "Cc1cc(C(=O)N[C@@H](C)C(=O)N[C@@H](Cc2c[nH]c3ccccc23)C(=O)N[C@@H](Cc2ccccc2)C(=O)C(=O)NCc2ccccc2)no1", "PROPERTY": "pIC50", "REPORTED_RESULT": 7.47}
{"COMPOUND": "CCCC[C@H](NC(=O)[C@H](Cc1ccc(OC)cc1)NC(=O)[C@H](C)NC(=O)CN1CCOCC1)C(=O)C(=O)NC", "PROPERTY": "pIC50", "REPORTED_RESULT": 6.16}
{"COMPOUND": "COCCNC(=O)C(=O)[C@H](Cc1ccccc1)NC(=O)[C@H](Cc1c[nH]c2ccccc12)NC(=O)[C@H](C)NC(=O)OCc1ccccc1", "PROPERTY": "pIC50", "REPORTED_RESULT": 7.85}
{"COMPOUND": "CC(C)C[C@H](NC(=O)[C@H](C)NC(=O)OCc1ccccc1)C(=O)N[C@@H](Cc1ccccc1)C(=O)C(=O)NCc1ccccc1", "PROPERTY": "pIC50", "REPORTED_RESULT": 7.21}
{"COMPOUND": "CCCCC(NC(=O)[C@H](COC)NC(=O)[C@H](C)NC(=O)c1cc(C)on1)C(=O)C(=O)NCc1ccccc1 (mixture of isomers)", "PROPERTY": "pIC50", "REPORTED_RESULT": 5.98}
{"COMPOUND": "CCCC[C@H](NC(=O)[C@H](CCS(C)(=O)=O)NC(=O)[C@H](C)NC(=O)C1=C(C)c2ccccc2C1)C(=O)C(=O)NCc1ccccc1", "PROPERTY": "pIC50", "REPORTED_RESULT": 7.00}

Could I get pIC50 for every one of these entries?
1. C[C@H](NC(=O)OCc1ccccc1)C(=O)N[C@@H](Cc1ccncc1)C(=O)N[C@@H](Cc1ccccc1)C(=O)C(=O)NCc1ccccc1
2. COc1ccc(C[C@H](NC(=O)C2(NC(=O)C3Cc4ccccc4C3)CC2)C(=O)N[C@@H](Cc2ccccc2)C(=O)C(=O)NCc2ccccc2)cc1
3. CC1=C(C(=O)N[C@@H](C)C(=O)N[C@@H](CCS(C)(=O)=O)C(=O)N[C@@H](Cc2ccccc2)C(=O)C(=O)NCc2ccccc2)Cc2ccccc21
4. C[C@H](NC(=O)CN1CCOCC1)C(=O)N[C@@H](Cc1c[nH]c2ccccc12)C(=O)N[C@@H](Cc1ccccc1)C(=O)C(=O)NCc1ccccc1
5. CNC(=O)C(=O)[C@H](Cc1ccccc1)NC(=O)[C@H](Cc1c[nH]c2ccccc12)NC(=O)[C@H](C)NC(=O)OCc1ccccc1
6. COc1ccc(C[C@H](NC(=O)[C@H](C)NC(=O)CN2CCOc3ccccc32)C(=O)N[C@@H](Cc2ccccc2)C(=O)C(=O)NCc2ccccc2)cc1

**Result**
1. 7.52
2. 7.40
3. 7.82
4. 6.91
5. 7.47
6. 8.40

* * *

- TEST_TARGET: β1i (Homo sapiens, UniProt P28065+P40306)
- Construct: protease activity associated with the proteasome complex in cultured cells; endogenous in cells
- EXPERIMENTAL_PROTOCOL: Cell-Based Proteasome Activity/Selectivity Assay (Ramos cells), substrate (PAL)2Rh110
- RUN_CONDITIONS: highest concentration tested 20 μM
- Description: Cell-Based Proteasome Activity/Selectivity Assay The Cell-Based Proteasome subunit activity/selectivity assay was a panel of 5 fluorogenic assays that independently measured the activity of β5c or β5i (chymotrypsin-like activity), β2c/2i (trypsin-like), and β1c or β1i (caspase-like) protease activity associated with the proteasome complex in cultured cells. […]
IC50 less than 500 nM is label 1; IC50 greater than or equal to 500 nM is label 0.

{"CPD_SMILES": "CCCC[C@H](NC(=O)[C@H](Cc1ccc(OC)cc1)NC(=O)[C@H](C)NC(=O)CN1CCOCC1)C(=O)C(=O)NC", "CLASS": "label 1"}
{"CPD_SMILES": "C[C@H](NC(=O)OCc1ccccc1)C(=O)N[C@@H](Cc1ccccn1)C(=O)N[C@@H](Cc1ccccc1)C(=O)C(=O)NCc1ccccc1", "CLASS": "label 0"}

**Query** A record lists CC1=C(C(=O)N[C@@H](C)C(=O)N[C@@H](Cc2c[nH]c3ccccc23)C(=O)N[C@@H](Cc2ccccc2)C(=O)C(=O)NCc2ccccc2)Cc2ccccc21 . Is its IC50 below 500 nM?
**Result** label 0

**Query** A record lists COc1ccc(C[C@H](NC(=O)[C@@H](NC(=O)C2Cc3ccccc3C2)C2CC2)C(=O)N[C@@H](Cc2ccccc2)C(=O)C(=O)NCc2ccccc2)cc1 . Is its IC50 below 500 nM?
**Result** label 1

**Query** A record lists Cc1cc(C(=O)N[C@@H](C)C(=O)N[C@@H](Cc2ccccc2)C(=O)N[C@@H](Cc2ccccc2)C(=O)C(=O)NCc2ccccc2)n(C)n1 . Is its IC50 below 500 nM?
**Result** label 0

Hey, just so you know, these numbers are from patent US20150274777A1.
